# Test system: crabgrass, large (large crabgrass, Digitaria sanguinalis)
# Experiment Summary: Test C preemergence, plant response rating
# Assay type: in vivo
# Condition Summary: Preemergence; 16 g ai/ha; scale 0 to 100
# Description: […]
Note to self: Plant response rating, Crabgrass, Large under 80 means class 1, ties and anything higher get class 0.

| Smiles Input | Classification |
| --- | --- |
| O=C(CCCC(F)(F)F)c1c(Oc2ncc(Cl)cn2)cccc1C(F)(F)F | class 1 |
| FC(F)(F)CCCc1c(Br)cccc1Oc1ncc(Cl)cn1 | class 1 |
| O=C(OCCC(F)(F)F)c1c(Br)cccc1Oc1ncc(Br)cn1 | class 1 |
| O=C(CCC(F)(F)F)c1c(Br)cccc1Oc1ncc(Cl)cn1 | class 0 |
| N#Cc1cccc(Oc2ncc(Cl)cn2)c1CCCC(F)(F)F | class 0 |
| FC(F)(F)CCCCc1c(Br)cccc1Oc1ncc(Cl)cn1 | class 1 |
| O=C(CCCCC(F)(F)F)c1c(Br)cccc1Oc1ncc(Cl)cn1 | class 1 |
| O=C(CCCC(F)(F)F)c1c(Cl)cccc1Oc1ncc(Cl)cn1 | class 1 |

---

# Tested on: kochia (Kochia scoparia)
# Experiment Summary: Test A postemergence, visual injury rating
# Assay type: in vivo
# Condition Summary: 125 g ai/ha, 0 to 100 scale, 0 is no effect, 100 is complete control, approximately 10 days

| Compound | Target Desc | Kochia plant response rating |
| --- | --- | --- |
| CC(C)Oc1cccc(Oc2ncc(Cl)cn2)c1C(=O)OCCC(F)(F)F | kochia (Kochia scoparia) | 0 |
| N#CC(CCCC(F)(F)F)c1ccccc1Oc1ncc(Cl)cn1 (centres unmarked) | kochia (Kochia scoparia) | 100 |
| C=C(C)CCOC(=O)c1c(Br)cccc1Oc1ncc(Cl)cn1 | kochia (Kochia scoparia) | 50 |
| O=C(CCC(F)(F)F)c1c(Br)cccc1Oc1ncc(Cl)cn1 | kochia (Kochia scoparia) | 100 |
| C#CCOC(=O)c1c(Br)cccc1Oc1ncc(Cl)cn1 | kochia (Kochia scoparia) | 40 |

---

# System: windgrass (Apera spica-venti)
# Experiment Summary: Test C preemergence, plant response rating
# Type: in vivo
# Condition Summary: 62 g ai/ha, scale 0 to 100

| Compound | Target Desc | Plant response rating, Windgrass |
| --- | --- | --- |
| O=C(CCCC(F)(F)F)c1c(Cl)cccc1Oc1ncc(Cl)cn1 | windgrass (Apera spica-venti) | 100 |
| O=C(CCCCC(F)(F)F)c1c(Br)cccc1Oc1ncc(Cl)cn1 | windgrass (Apera spica-venti) | 80 |
| N#CC(CCCC(F)(F)F)c1ccccc1Oc1ncc(Cl)cn1 (centres unmarked) | windgrass (Apera spica-venti) | 80 |
| C=C(Br)COC(=O)c1c(Br)cccc1Oc1ncc(Cl)cn1 | windgrass (Apera spica-venti) | 40 |
| FC(F)(F)CCCc1c(Br)cccc1Oc1ncc(Cl)cn1 | windgrass (Apera spica-venti) | 65 |
| CCCCC(=O)c1c(Oc2ncc(Cl)cn2)cccc1C(F)(F)F | windgrass (Apera spica-venti) | 100 |
| N#Cc1cccc(Oc2ncc(Cl)cn2)c1COCCC(F)(F)F | windgrass (Apera spica-venti) | 100 |
| CCCC(=O)c1c(Oc2ncc(Cl)cn2)cccc1C(F)(F)F | windgrass (Apera spica-venti) | 85 |

---

# Tested on: morningglory (Ipomoea coccinea)
# Experiment Summary: Test C preemergence, plant response rating
# Assay type: in vivo
# Condition Summary: Preemergence, 125 g ai/ha; scale of 0 to 100
Please note: 1 applies when Plant response rating, Morningglory is 40 or greater, and -1 applies otherwise.

| Smiles Input | Classification |
| --- | --- |
| C=C(Br)COC(=O)c1c(Br)cccc1Oc1ncc(Cl)cn1 | -1 |
| CCCCC(=O)c1c(Oc2ncc(Cl)cn2)cccc1C(F)(F)F | -1 |
| N#Cc1cccc(Oc2ncc(Cl)cn2)c1CCCC(F)(F)F | 1 |
| N#Cc1cccc(Oc2ncc(Cl)cn2)c1COCCC(F)(F)F | 1 |
| N#Cc1cccc(Oc2ncc(Cl)cn2)c1C(=O)OCCC(F)(F)F | -1 |
| O=C(CCC(F)(F)F)c1c(Br)cccc1Oc1ncc(Cl)cn1 | 1 |
| O=C(CCCCC(F)(F)F)c1c(Br)cccc1Oc1ncc(Cl)cn1 | -1 |

// provenance: patent US11053204B2
